experiment: Human HepG2 cell viability assay in 384 well format; format: toxicity, cell-based; design: dose 125 nL, time 70.5 hour; concentration not given beside the values; details: HepG2 cells, read-out: Inhibition
Measured Parameter: cytotoxicity at 70.5 h

1. COCc1noc(CC2CN(c3ncnc4sc(C)c(C)c34)CCO2)n1 (stereo not drawn)    1.73%
2. Cc1cnn(C2CN(Cc3nnc(C4CC4)o3)C2)c1    -10.1%
3. Cc1nc(CCNc2ccc(-c3nc(C)c(C)c(=O)[nH]3)cn2)cs1    -1.37%
4. COc1ccc(F)cc1S(=O)(=O)N1CCC(Oc2ccc(Cl)cn2)CC1    -3.49%
5. CCc1nccn1C1CCCN(C(=O)c2cccc3c2OCO3)C1 (stereo not drawn)    -16%
6. CC1N(CC2CC2)C(=O)COC12CCN(C(=O)c1cnccn1)CC2 (stereo not drawn)    -5.19%
7. COc1cc(C)nc(N2CCN(C(C)c3nc(C)no3)CC2)n1 (stereo not drawn)    -6.32%
8. Cc1cc2c(N3CCC(N(C)CCc4cnn(C)c4)CC3)ncnc2s1    2.46%
9. CCc1ncc(CN2C[C@H]3CC[C@@H]2CN(C(=O)C2CCC2)C3)cn1    -6.96%
10. CCCC(=O)N1CCc2nc3cc(OC)c(OC)cc3c(=O)n2CC1    -5.67%
11. O=C(c1c[nH]c(=O)[nH]1)N1CCc2ccccc21    -4.03%
12. CC1CN(C(=O)Nc2ccc(Cl)c(C(=O)NC3CC3)c2)CC(C)(C)O1 (stereo not drawn)    -7.92%
13. CCc1nc(C)ncc1C(=O)N1CCN(CC)c2ccccc21    8.71%
14. O=C(NCCN1CCCC1)C1(c2ccc(Cl)cc2)CCOCC1    -3%
15. Cn1nc(CN2CCCC2)c2c1CN(C(=O)c1ccncc1F)CC2    -3.12%
16. Cc1occc1C(=O)N1CCC(C(O)c2ccc(Cl)cc2)CC1 (stereo not drawn)    5.5%
17. CC(C)c1noc(CCCC(=O)NC2CCS(=O)(=O)C2)n1 (stereo not drawn)    -0.791%
18. Cc1ccc(CS(=O)(=O)CC(=O)NCc2ccccc2F)cc1    -15.5%
19. CCN(c1ccc(C(=O)Nc2c(C)nn(C(C)C)c2C)cc1)C(C)C    -7.4%
20. CC(Cn1ccnc1)NC(=O)NCCc1cccnc1 (stereo not drawn)    -2.45%
21. NC(=O)Cn1cc(NC(=O)N2CCN(c3ccccc3)CC2)cn1    -12.6%
22. CS(=O)(=O)CCn1ccc(NC(=O)Cc2ccccc2F)n1    3.54%
23. CC(C)c1nc(CN(C)Cc2ccc(F)cc2)cs1    -22.4%
24. CC(C)N[C@@H]1CO[C@H](CNC(=O)c2ccccc2)[C@H]1O    -0.106%
25. CC(C)Nc1ncnc2c1CCN(C(=O)CCc1ccccc1)CC2    -3.23%
26. CCS(=O)(=O)N1Cc2ncn(C)c2C(COCC2CCOCC2)C1 (stereo not drawn)    -3.96%
27. O=C(CO)N1CCN(C(=O)c2coc3ccccc23)CC1    -7.53%
28. CN1CCOCC12CCN(c1nncs1)CC2    -2.11%
29. COc1ccnc(CN2CCCC(CCc3ccccc3)C2)c1OC (stereo not drawn)    3.51%
30. O=C(c1cnc(NCc2cccnc2)c(Cl)c1)N1CCCCC1    -12.2%
31. Cc1nnc2ccc(OCCNS(C)(=O)=O)nn12    -0.867%
32. Fc1ccc(NCc2nnsc2Cl)c(OC(F)F)c1    0.194%
33. Cc1ccc2c(c1)C1(CCNCC1)CN2C(=O)CN(C)C    4.93%
34. O=C(C[C@H]1[C@H]2CN(C(=O)CO)C[C@@H]12)Nc1cccnc1    0.591%
35. Cc1cccc(CNC2CC3(CCN(CCO)CC3)c3ccccc32)n1 (stereo not drawn)    2.24%
36. Cc1ccc(CNC(c2ccccc2)c2nccn2C)cc1 (stereo not drawn)    22.4%
37. COc1ccccc1OC1CN(C(=O)Cc2c(C)nc(C)[nH]c2=O)C1    -2.42%
38. O=C1OCCC1N1CCN(c2ccccn2)CC1 (stereo not drawn)    -15.5%
39. CCCN1CCN(S(=O)(=O)c2ccccc2OC)[C@H]2CS(=O)(=O)C[C@H]21    -16.5%
40. Cc1ccc(C(C)NC(=O)N2CCN(C(=O)CC(F)(F)F)CC2)o1 (stereo not drawn)    -3.77%
41. CC(C)c1ncncc1C(=O)NCCN1CCCCC1C (stereo not drawn)    -1.51%
42. Cc1cccc(N2CCC(NC(=O)CCCc3cccs3)CC2)n1    -2.62%
43. N#Cc1cc(N2CCC(S(N)(=O)=O)CC2)c2ccccc2n1    -2.54%
44. CC(=O)c1ccc(N2CCN(C(=O)NCc3cc[nH]n3)CC2)cc1    -2.83%
45. CCc1nc2c(s1)C(N(C)C(C)=O)CCC2 (stereo not drawn)    -7.14%
46. Cc1nnc(CNC(=O)C2CSCCC(=O)N2)o1 (stereo not drawn)    45.2%
47. CCOc1ccc(NC(=O)NC2CCc3[nH]ncc3C2)cn1 (stereo not drawn)    -2.96%
48. O=C(NCCO)Nc1cccc(Cl)c1SC(F)F    16.9%

###

Recorded cytotoxicity at 70.5 h for the following compounds
test: Human HepG2 cell viability assay in 384 well format; format: toxicity, cell-based; design: dose 125 nL, time 70.5 hour; concentration not given beside the values; conditions: HepG2 cells, read-out: Inhibition
Measured Parameter: cytotoxicity at 70.5 h (%)

1) CC1CCC(NS(=O)(=O)CC(=O)Nc2ccc(N3CCCC3)cn2)CC1 (centres undefined)    -5.53
2) COC(=O)CCCC(=O)N1CCC(CO)(CCc2ccccc2)CC1    -11.9
3) COc1cccc(OCCc2cncc(C(N)=O)c2)c1    -9.46
4) NC(=O)c1cncc(N2CCN(Cc3ccc(F)cc3Cl)CC2)n1    -3.73
5) CCC(=O)N1CCC(c2nc(N3CCCC3)ncc2S(C)(=O)=O)CC1    17.6
6) CNC(=O)[C@H]1C[C@@H]2CN(C(=O)c3ccccn3)C[C@@H]2N1S(C)(=O)=O    -7.73
7) c1cc(COC[C@@H]2CCC[C@@]23CNCCO3)ccn1    8.32
8) Cn1ncnc1NCc1ccccc1Cl    -15.3
9) COCCN1C(=O)CC[C@@H]2[C@@H]1CCN2S(=O)(=O)C1CC1    -3.21
10) Fc1cccc(Oc2ccc(CNCC3CNc4ccnn4C3)cn2)c1 (centres undefined)    0.403
11) Cc1ccc2c(c1)OCCCC2NCc1nccn1Cc1ccccc1 (centres undefined)    -6.01
12) Cc1cnccc1-c1cnn(CCNC(=O)c2ccccn2)c1C1CC1    27.5
13) CO[C@@H]1CCN(C(=O)c2cnoc2C)[C@H]1Cc1ccccc1    2.59
14) CNS(=O)(=O)CCCN1CCCCCC1c1ccc(C)o1 (centres undefined)    -11
15) COCC(=O)N1CCC2(CCC2N(C)Cc2ccco2)CC1 (centres undefined)    3.06
16) COCCNC(=O)C1CC(=O)N(c2n[nH]c3cccc(F)c23)C1 (centres undefined)    -25
17) COc1ccccc1[C@@H]1CN(CC(=O)N2CCCCC2)C[C@H]1C(=O)O    -7.8
18) COc1ncc(Cl)c(NCc2ccc(C(=O)N(C)C)cc2)n1    27.7
19) CS(=O)(=O)NC[C@H]1Cn2c(-c3ccc4c(c3)OCCO4)cnc2CO1    -13.2
20) COCCN1C[C@H]2CCC[C@@H](CNc3ncccn3)[C@H]2C1    -10.7
21) Cn1ccnc1CCNS(=O)(=O)c1cccnc1    -4.82
22) Cn1ccc(C(=O)NCc2ccc(N3CCCCC3)nc2)cc1=O    18.6
23) CC(C)c1noc(C2CC(=O)N(CCN(C)C)C2)n1 (centres undefined)    -8.25
24) CNC(=O)CN(C)CC1(c2ccc(Br)cc2)CC1    0.137

###

test: Human HepG2 cell viability assay in 384 well format; type: toxicity, cell-based; parameters: dose 125 nL, time 70.5 hour; concentration not given beside the values; conditions: HepG2 cells, read-out: Inhibition
Measured Parameter: cytotoxicity at 70.5 h (%)

1) CCCc1cc(=O)[nH]c2nnc(SCC(=O)OCC)n12    -9.96
2) COc1ccc(C)cc1CC(=O)N1CC[C@@]2(CCCO2)[C@@H](O)C1    -5.66
3) Cc1nc(C(=O)NCc2ccccn2)cc(C2CCCN2)n1 (stereo unspecified)    20.2
4) CNc1cc(C)nc(C2CN(Cc3cncs3)CCO2)c1 (stereo unspecified)    -11.5
5) CCOc1nc2cnccc2n(CC(=O)Nc2ccccc2OC)c1=O    -7.54
6) Cn1ccnc1C1c2nc[nH]c2CCN1Cc1cccnc1 (stereo unspecified)    -5.94
